# tgt: Tyrosine-protein kinase ITK/TSK (Homo sapiens)
# protocol.conditions: at 0.1 µM;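 note: mean percent inhibition of ITK from the GSK PKIS screen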
Each entry below carries its recorded inhibition.
readout.label: inhibition (%)

compound=COc1cc(Nc2ncc3c(C)nc(-c4cccc(Oc5ccccc5)c4)n3n2)cc(OC)c1OC tgt="Tyrosine-protein kinase ITK/TSK (Homo sapiens)" value=0.96
compound=c1ccc(Oc2ccc(Nc3ncc(-c4ccccc4)o3)cc2)cc1 tgt="Tyrosine-protein kinase ITK/TSK (Homo sapiens)" value=0.89
compound=O=C(Nc1n[nH]c2cc(-c3ccccc3)ccc12)C1CC1 tgt="Tyrosine-protein kinase ITK/TSK (Homo sapiens)" value=1.56
compound=COC(=O)Nc1nc2ccc(Sc3ccc(NC(=O)Nc4cc(C(F)(F)F)ccc4F)cc3)cc2[nH]1 tgt="Tyrosine-protein kinase ITK/TSK (Homo sapiens)" value=0.19
compound=c1ccc(-c2n[nH]cc2-c2ccnc(-c3ccc(OCCN4CCOCC4)cc3)c2)nc1 tgt="Tyrosine-protein kinase ITK/TSK (Homo sapiens)" value=5.52
compound=CS(=O)(=O)CCNCc1ccc(-c2ccc3ncnc(Nc4ccc(OCc5ccccc5)c(Br)c4)c3c2)o1 tgt="Tyrosine-protein kinase ITK/TSK (Homo sapiens)" value=-4.12
compound=NC(=O)c1cc(-c2ccc(F)cc2)cc(-c2ccncc2)c1N tgt="Tyrosine-protein kinase ITK/TSK (Homo sapiens)" value=0.92
compound=Fc1ccc(-c2ncn(C3CCNCC3)c2-c2ccnc(Oc3ccc4c(c3)OCO4)n2)cc1 tgt="Tyrosine-protein kinase ITK/TSK (Homo sapiens)" value=1.6
compound=COc1ccc(-c2ccc3c(NC(=O)C4CC4)n[nH]c3n2)cc1 tgt="Tyrosine-protein kinase ITK/TSK (Homo sapiens)" value=0.61
compound=CCN(CC)Cc1ccc(Nc2nccc(-c3cnn4ncccc34)n2)cc1 tgt="Tyrosine-protein kinase ITK/TSK (Homo sapiens)" value=-3.08
compound=COc1cc2ncn(-c3cc(OCCc4ccccc4)c(C(N)=O)s3)c2cc1OC tgt="Tyrosine-protein kinase ITK/TSK (Homo sapiens)" value=1.33
compound=NCc1ccc(-n2c(-c3nonc3N)nc3cnccc32)cc1 tgt="Tyrosine-protein kinase ITK/TSK (Homo sapiens)" value=1.67
compound=Cc1ccc(NC(=O)c2ccoc2)cc1-c1ccc(C(=O)NCC2CC2)cc1 tgt="Tyrosine-protein kinase ITK/TSK (Homo sapiens)" value=-0.83
compound=Cc1nnc(-c2ccc(C)c(-c3ccc(C(=O)NCc4ccc(Cl)cc4)cc3)c2)o1 tgt="Tyrosine-protein kinase ITK/TSK (Homo sapiens)" value=-2.09
compound=NS(=O)(=O)c1ccc(Nc2cc(-c3ccc(O)c(F)c3)n[nH]2)cc1 tgt="Tyrosine-protein kinase ITK/TSK (Homo sapiens)" value=0.74
compound=COc1cc(C)c(N(C)C(=O)CN(C)C)cc1Nc1nc(Nc2cccc(F)c2C(N)=O)c2cc[nH]c2n1 tgt="Tyrosine-protein kinase ITK/TSK (Homo sapiens)" value=-2.44
compound="COc1ccc2cc(-c3c(-c4ccncc4)nc(-c4ccc([S+](C)[O-])cc4C)n3C)ccc2c1 (stereo unspecified)" tgt="Tyrosine-protein kinase ITK/TSK (Homo sapiens)" value=0.02
compound=Fc1ccc(-c2nc3n(c2-c2ccncc2)CCS3)cc1 tgt="Tyrosine-protein kinase ITK/TSK (Homo sapiens)" value=-1.96
compound=COc1ccc2ncn(-c3cc(O[C@H](C)c4ccccc4Cl)c(C(N)=O)s3)c2c1 tgt="Tyrosine-protein kinase ITK/TSK (Homo sapiens)" value=-4.15
compound=NC(=O)c1ccc(Oc2nccc(-c3c(-c4ccc(F)cc4)ncn3C3CCNCC3)n2)cc1 tgt="Tyrosine-protein kinase ITK/TSK (Homo sapiens)" value=3.1
compound=CCc1nccc2c1nc(-c1nonc1N)n2CC tgt="Tyrosine-protein kinase ITK/TSK (Homo sapiens)" value=0.88
